Tested on: Plasmodium falciparum Dd2 asexual blood stage parasites
Experiment: microbe, parasite or virus in culture
Set-up: species or system Plasmodium falciparum Dd2 in human erythrocytes; single determination (one 11-point concentration-response curve)
Conditions: Plasmodium falciparum, DD2, Erythrocyte, 72 h; read-out: AC50
compounds and their reported AC50
Unit µM implied. Number only.

1) COc1cc(NC(=O)CSc2nc(-c3ccc(C(C)C)cc3)no2)cc(OC)c1 : 0.841

Value lookup for AC50; key = COc1ccc(CC(=O)N2CCC(Oc3ncccc3C(=O)N3CCCCC3)C2)cc1 (centres unmarked)
9.44

Same lookup for O=C(c1ccc(-c2ncc3cnc(-c4ccccc4)cn23)cc1)N1CCc2cccnc21 , please.
17.2

Query Cc1ccc([S+](=O)([O-])c2nc([S+](=O)([O-])c3ccccc3)sc2NCCCOC(C)C)cc1 next
0.596

Please answer likewise for CCCC1=Nc2cc(C(=O)NCCCN3CCCCC3CC)ccc2Sc2ccc(C)cc21 (centres unmarked)
9.44

And the next one, CN1CCOc2c(C(=O)NCc3cccnc3)cc(-c3cccc4[nH]ccc34)cc21 ?
8.63

Request: C=CCOC(=O)C(C#N)c1nc2ccccc2nc1N1CCC(C(=O)OCC)CC1 (centres unmarked)
2.37

Then what about the compound CCOc1ccccc1NC(=O)Nc1ccc2nc(N3CCN(C)CC3)cc(C)c2c1 ?
1.33

Thanks! And Cc1ccccc1OCC(O)CN(Cc1ccccc1O)C1CCCCC1 (centres unmarked) ?
0.119

Try the compound O=c1cc(CSc2ccc(Cl)cc2)nc(-c2ccccn2)[nH]1
5.96

Please give the result for O=C(c1cc(NC(=O)C23CC4CC(CC(C4)C2)C3)cc(NC(=O)C23CC4CC(CC(C4)C2)C3)c1)N1CCCCC1 too.
5.96

Same question for CCCCCCSc1ccc([C@H]2N[C@@](Cc3ccccc3)(C(=O)OC)[C@H]3C(=O)N(CC)C(=O)[C@@H]23)cc1 please.
3.35

Now the same for CN1CCN(Cc2nnc(C(=O)N3CCC[C@@H]3c3ccc(Br)cc3)n2Cc2ccccc2)CC1
7.5

Similarly, CC1CCCN(Cc2c(O)ccc3c(=O)c(-c4ccc(Cl)cc4)coc23)C1 (centres unmarked) ?
1.88

What about this compound? O=C(Nc1ccc2c(N3CCOCC3)ncnc2c1)c1ccc(Br)o1
2.66

Now this one: COc1ccc(N2CCN(c3oc(/C=C/c4cc(OC)c(OC)c(OC)c4)nc3C#N)CC2)cc1
2.66

What about this compound? Cn1nc(C2CCCCC2)cc1[C@H]1CN2CC[C@H]1C[C@@H]2CNC(=O)c1cccs1
13.7

Now this one: O=C(Nc1ccc(Nc2ccncc2)cc1)c1ccc(Nc2ccnc3ccc([N+](=O)[O-])cc23)cc1
0.75

Would you kindly repeat that for Cc1nc(-c2ccccc2)n(CC(=O)Nc2ccc(Cl)cc2)c(=O)c1CCO ?
16.8

One more compound: CCOC(=O)c1ccc(NC2=CC(c3ccc(F)cc3)N(c3ccc(C(=O)OCC)cc3)C2=O)cc1 (centres unmarked)
8.41

* * *

CC50 at 48 h for assorted compounds
Experiment: in vitro
Conditions: human, hepg2 cells
Enter your answer as a number in µM; do not include the unit.

1) OC[C@H]1CCN(Cc2ccc(-c3cccc(Cl)c3Cl)o2)C[C@@H]1O : 30.6

Need CC50 at 48 h of CC(=O)N1CCN(c2cc(-c3noc([C@@H]4CCCN4Cc4ccc(C(F)(F)F)cc4)n3)ccn2)CC1 , thanks.
30.6

# iterate: Cc1nn(C)c(C)c1CCC(=O)N1CCC(Cc2noc(-c3ccc(F)cc3)n2)C1 (stereo not drawn)
30.6
